molecular target: CDK4/cyclinD1 (Homo sapiens); assay: In vitro filtration assay for CDK4 inhibitory activity (pRb phosphorylation, [33P]-ATP); type: biochemical; conditions: GST-pRb substrate, 1 μM unlabeled ATP, 25° C. 45 minutes, read-out: cdk4 filter (pIC50) (converted)
Sequence (P11802 whole entry): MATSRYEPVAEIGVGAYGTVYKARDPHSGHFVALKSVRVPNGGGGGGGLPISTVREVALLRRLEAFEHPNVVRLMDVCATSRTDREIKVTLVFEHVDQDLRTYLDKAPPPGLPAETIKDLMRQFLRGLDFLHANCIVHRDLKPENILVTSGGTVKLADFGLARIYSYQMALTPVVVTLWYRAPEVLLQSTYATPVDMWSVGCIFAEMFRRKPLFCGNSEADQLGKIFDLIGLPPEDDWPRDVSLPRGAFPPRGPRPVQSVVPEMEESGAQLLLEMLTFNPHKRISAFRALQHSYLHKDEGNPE
Sequence (P24385 whole entry partner): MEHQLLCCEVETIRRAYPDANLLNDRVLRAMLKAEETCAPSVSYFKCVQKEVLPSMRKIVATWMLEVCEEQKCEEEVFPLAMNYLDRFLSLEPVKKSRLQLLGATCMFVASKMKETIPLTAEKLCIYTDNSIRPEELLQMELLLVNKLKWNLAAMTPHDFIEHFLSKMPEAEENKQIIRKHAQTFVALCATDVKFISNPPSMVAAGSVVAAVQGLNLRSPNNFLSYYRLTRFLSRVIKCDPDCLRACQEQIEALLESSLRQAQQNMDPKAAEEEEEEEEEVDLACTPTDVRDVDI
Recorded IC50 determines the label; the label ranges are bottom = under 0.06 µM, middle = from 0.06 µM up to 0.3 µM, top = 0.3 µM and over

Worked set:
[
  {
    "SMILES": "NS(=O)(=O)N1CCN(Cc2ccc(Nc3ncc4cnn(C5CCCCC5)c4n3)cc2)CC1",
    "CATEGORY LABEL": "middle"
  },
  {
    "SMILES": "CC(C)(O)CN1CCC(NCc2ccc(Nc3ncc4cnn(C5CCCCC5)c4n3)cc2)CC1",
    "CATEGORY LABEL": "bottom"
  },
  {
    "SMILES": "CN1CCC(NCc2ccc(N(C(=O)OC(C)(C)C)c3ncc4cnn([C@H]5C[C@@H]6CC[C@H]5C6)c4n3)cc2)CC1",
    "CATEGORY LABEL": "top"
  },
  {
    "SMILES": "OCCCC1CCN(c2ccc(Nc3ncc4cnn(C5CCCC5)c4n3)cc2)CC1",
    "CATEGORY LABEL": "middle"
  },
  {
    "SMILES": "CN1CCN(C(=O)c2ccc(Nc3ncc4cnn(C5CCCCC5)c4n3)cc2)CC1",
    "CATEGORY LABEL": "bottom"
  },
  {
    "SMILES": "CN1CCN(c2ccc(Nc3ncc4[nH]c(=O)n(C5CCCCC5)c4n3)cc2)CC1",
    "CATEGORY LABEL": "middle"
  }
]

Lookup: Form: Item = CC(C)(C)OC(=O)N(c1ccc(CNCCN2CCOCC2)cc1)c1ncc2cnn(C3CCOCC3)c2n1 ; Class = ?
Found: top

Lookup: Form: Item = CN1CCN(c2ccc(Nc3ncc4c(n3)N(C3CCCCC3)C(=O)C4)cc2)CC1 ; Class = ?
Found: top

Lookup: Form: Item = O=C(NC1CCN(CCO)CC1)c1ccc(Nc2ncc3cnn(C4CCCCC4)c3n2)cc1 ; Class = ?
Found: middle

Lookup: Form: Item = CN1CCC(NCc2ccc(Nc3ncc4cnn([C@H]5C[C@@H]6CC[C@H]5C6)c4n3)cc2)CC1 ; Class = ?
Found: bottom

* * *

target: AURORA A (Homo sapiens, UniProt O14965); assay: In vitro filtration assay for AURORA A inhibitory activity; type: biochemical; settings: Kemptide substrate, 1 μM unlabeled ATP, 25° C. 40 minutes, read-out: Aurora A see C.2 (pIC50) (converted)
Sequence (O14965 whole entry): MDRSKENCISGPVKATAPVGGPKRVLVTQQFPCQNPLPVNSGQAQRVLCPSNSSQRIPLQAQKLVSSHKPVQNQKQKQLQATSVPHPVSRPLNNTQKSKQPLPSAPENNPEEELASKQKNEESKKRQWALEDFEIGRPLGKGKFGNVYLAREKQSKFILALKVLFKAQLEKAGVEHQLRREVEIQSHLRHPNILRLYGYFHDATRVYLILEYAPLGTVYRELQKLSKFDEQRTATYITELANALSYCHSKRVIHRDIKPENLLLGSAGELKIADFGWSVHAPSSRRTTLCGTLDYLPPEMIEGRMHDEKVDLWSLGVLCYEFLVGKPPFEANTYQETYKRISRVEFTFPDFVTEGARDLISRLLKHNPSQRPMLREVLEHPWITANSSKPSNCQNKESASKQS
Recorded IC50 determines the label; the label ranges are lo = under 200 nM, mid = from 200 nM up to 3000 nM, hi = 3000 nM and over

Worked set:
[
  {
    "COMPOUND": "COCCCN1CCC(NC(=O)c2ccc(Nc3ncc4cnn(C5CCCCC5)c4n3)cc2)CC1",
    "TEST TARGET": "AURORA A (Homo sapiens, UniProt O14965)",
    "CATEGORY LABEL": "mid"
  },
  {
    "COMPOUND": "O=c1[nH]n(C2CCCC2)c2nc(Nc3ccc(N4CCOCC4)cc3)ncc12",
    "TEST TARGET": "AURORA A (Homo sapiens, UniProt O14965)",
    "CATEGORY LABEL": "mid"
  }
]

Please look at the following compound next.
Lookup: Form: Item = CC(C)(C)OC(=O)N(c1ccc(CNCCN2CCOCC2)cc1)c1ncc2cnn(C3CCOCC3)c2n1 ; Class = ?
Found: hi
